# Lookup of reported melting point keyed by entry

compound	melting point
CCC(C)COc1ccc(-c2ccc(O)cc2)cc1 (stereo unspecified)	80.5 °C
COc1c(Br)ccc2s[nH]c(=O)c12	197 to 198 °C
CC(=O)Nc1c(Cl)cnc(OCCO)c1Cl	131 to 132 °C
Cc1ccc2c(c1)c(=O)oc(=O)n2Cc1ccc(F)cc1	153 °C
Cc1c(C)c2c(c(C)c1OC(=O)CCC(=O)O)C(c1ccc(C(C)C)cc1)C(C)(C)O2 (stereo unspecified)	141 to 142 °C

Bench note: what melting point did O=C(c1ccc(F)cc1)c1noc(CN2CCN(c3ccccc3)CC2)n1 show?
72 to 74 °C

Taken from a melting point compilation (Tetko et al.; mined from patent text by program, amines drawn as free bases though some values may be those of a salt).
